B1: library; a variant is named by its letters at N, in order (parent)
chain: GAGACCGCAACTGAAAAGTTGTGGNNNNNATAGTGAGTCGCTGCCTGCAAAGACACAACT

- Variants of: B1
- Protocol description: ligation selection enrichment (abundance after / before one-round selection) (fold); higher = more template-directed ligation activity
- Conditions used: with T7Psub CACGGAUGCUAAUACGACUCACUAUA; MgCl2 25 mM; 42 °C; 4 h; pH 8.5
Could you label it yes if measured ligation selection enrichment is 0.3 or higher, and no otherwise?

Answered cases to consult:
[[record]]
alteration = "GAAGT"
discrete_label = "no"

[[record]]
alteration = "ATTCT"
discrete_label = "yes"

[[record]]
alteration = "ATACT"
discrete_label = "yes"


Input line: Identify whether the reported ligation selection enrichment of the following variant is 0.3 or greater: CTCAT
Output line: no

Input line: Record CCAGT ; criterion: ligation selection enrichment no lower than 0.3. Met?
Output line: no

Input line: Record TGGCG ; criterion: ligation selection enrichment no lower than 0.3. Met?
Output line: yes

Input line: Is reported ligation selection enrichment greater than or equal to 0.3 here: TTTAA
Output line: no

Input line: Determine whether this variant has ligation selection enrichment no lower than 0.3: GGCTT
Output line: no
